Origin of values: patent US5330992A

# maps each entry to its pIC50
Tested on: P388 murine leukemia cells
Assay: Malignant cell cytotoxicity, continuous 48-hour exposure (Coulter Counter)
Assay type: cell-based
Conditions: Mus musculus, read-out: IC50 P388 cont. exp.
Description: Examples of compound I having Topo II activity were tested for malignant cell cytotoxicity. In vitro cytotoxicity was assayed by determining cell survival following exposure of P388 murine leukemia cells to a range of test compound concentrations. Cytotoxicity was quantitated following either a one-hour exposure or continuous exposure of P388 cells to test compound. […]
pIC50: −log10 of the molar value.
assayEndpoint: pIC50

>>> valueobserved("COc1cc(Cc2cn(C3CC3)c3c(F)c(-c4cc(C)nc(C)c4)c(F)cc3c2=O)cc(OC)c1OC [Example 5]")
4.74
>>> valueobserved("COc1cccc(OC)c1Cc1cn(C2CC2)c2c(F)c(-c3cc(C)nc(C)c3)c(F)cc2c1=O [Example 1]")
4.70
>>> valueobserved("Cc1cc(-c2c(F)cc3c(=O)c(Cc4ccccc4O)cn(C4CC4)c3c2F)cc(C)n1 [Example 30]")
6.54
>>> valueobserved("Cc1cc(-c2c(F)cc3c(=O)c(Cc4ccc(O)cc4)cn(C4CC4)c3c2F)cc(C)n1 [Example 27]")
6.35
>>> valueobserved("Cc1cc(-c2c(F)cc3c(=O)c(Cc4cc(O)c(O)c(O)c4)cn(C4CC4)c3c2F)cc(C)n1 [Example 29]")
5.10
>>> valueobserved("COc1cc(Cc2cn(C3CC3)c3c(F)c(-c4cc(C)nc(C)c4)c(F)cc3c2=O)cc(OC)c1O [Example 28]")
5.34
>>> valueobserved("Cc1cc(-c2c(F)cc3c(=O)c(Cc4c(O)cccc4O)cn(C4CC4)c3c2F)cc(C)n1 [Example 26]")
7.26
>>> valueobserved("Cc1cc(-c2c(F)cc3c(=O)c(Cc4ccc(O)cc4O)cn(C4CC4)c3c2F)cc(C)n1 [Example 33]")
7.21
>>> valueobserved("COc1ccc(Cc2cn(C3CC3)c3c(F)c(-c4cc(C)nc(C)c4)c(F)cc3c2=O)c(OC)c1 [Example 12]")
5.13
>>> valueobserved("Cc1cc(-c2c(F)cc3c(=O)c(Cc4cccc(O)c4)cn(C4CC4)c3c2F)cc(C)n1 [Example 31]")
5.82
>>> valueobserved("COc1cccc(Cc2cn(C3CC3)c3c(F)c(-c4cc(C)nc(C)c4)c(F)cc3c2=O)c1 [Example 9]")
5.21
>>> valueobserved("COc1cccc(Cc2cn(C3CC3)c3c(F)c(-c4cc(C)nc(C)c4)c(F)cc3c2=O)c1OC [Example 11]")
5.05
>>> valueobserved("Cc1cc(-c2c(F)cc3c(=O)c(Cc4ccccc4)cn(C4CC4)c3c2F)cc(C)n1 [Example 3]")
5.15

====

system: P388 murine leukemia cells; assay: Malignant cell cytotoxicity, continuous 48-hour exposure (Coulter Counter); format: cell-based; details: Mus musculus, read-out: IC50 P388 cont. exp.
Measured IC50 by item
assayEndpoint: IC50

>>> valueobserved("Cc1cc(-c2c(F)cc3c(=O)c(Cc4ccc5c(c4)OCO5)cn(C4CC4)c3c2F)cc(C)n1 [Example 10]")
"8.5 µM"
>>> valueobserved("COc1ccc(Cc2cn(C3CC3)c3c(F)c(-c4cc(C)nc(C)c4)c(F)cc3c2=O)cc1 [Example 7]")
"14 µM"
>>> valueobserved("Cc1cc(-c2c(F)cc3c(=O)c(Cc4ccccn4)cn(C4CC4)c3c2F)cc(C)n1 [Example 4]")
"4 µM"
>>> valueobserved("Cc1cc(-c2c(F)cc3c(=O)c(Cc4ccc(O)c(O)c4)cn(C4CC4)c3c2F)cc(C)n1 [Example 32]")
"1.4 µM"
